experiment: Log P by HPLC on reversed phase columns (EEC directive 79/831 Annex V.A8; methods [a], [b], [c]); assay type: physicochemical
Provide the recorded LogP for the entries that follow.

Previously resolved entries follow.
- Molecule: "N#Cc1cncn1CC(O)c1cnc(Oc2ccc(Cl)cc2F)cc1C(F)(F)F (stereo not drawn)"
  LogP: "3.13^[a]"
- Molecule: "N#Cc1cncn1CC(O)(c1ccc(C(F)(F)F)cc1Cl)C1(F)CC1 (stereo not drawn)"
  LogP: "2.75^[a]"
- Molecule: "N#Cc1cncn1CC(O)(c1ccc(F)nc1F)C1(Cl)CC1 (stereo not drawn)"
  LogP: "1.98^[a]"
- Molecule: "OC(Cn1cncc1Cl)c1ccc(Oc2ccccc2)cc1F (stereo not drawn)"
  LogP: "1.99^[a]"
- Molecule: "CCCCC(O)(Cn1cncc1C#N)c1ccc(F)cc1 (stereo not drawn)"
  LogP: "2.47^[a]"

Which LogP is listed for CC(C)CC(O)(Cn1cncc1C#N)c1ccc(Cl)cc1 (stereo not drawn) ?
2.70^[a]

----------
Give measured pest or weed control at 500 ppm for each item. Keep answers brief.
system: Uromyces appendiculatus; assay: Example IX-D: in vivo preventive test on Uromyces appendiculatus (bean rust); conditions: 264 h, compounds of formula IX, 500 ppm of active ingredient, bean plants, preventive spray, evaluated 11 days after inoculation, read-out: efficacy

Reference set, count: 4
- Smiles Repr: "N#Cc1cncn1CC(=O)c1cnc(Oc2ccc(Cl)cc2)cc1Br"
  Observed: "80 to 89%"
- Smiles Repr: "O=C(Cn1cncc1F)c1cnc(Oc2ccc(Cl)cc2)cc1C(F)(F)F"
  Observed: "90 to 100%"
- Smiles Repr: "O=C(Cn1cncc1Cl)c1ccc(Oc2ccc(Cl)cc2)cc1Cl"
  Observed: "90 to 100%"
- Smiles Repr: "O=C(Cn1cncc1Cl)c1ccc(Oc2ccc(C(F)(F)F)cc2)cc1C(F)(F)F"
  Observed: "90 to 100%"

Dear colleague, could you send me pest or weed control at 500 ppm for each of the items below? Thanks.
1. N#Cc1cncn1CC(=O)c1ccc(Oc2ccc(I)cc2)cc1Cl
2. O=C(Cn1cncc1Cl)c1ccc(Oc2ccc(I)cc2)cc1F
3. CC(=O)c1cncn1CC(=O)c1cnc(Oc2ccc(Cl)cc2)cc1C(F)(F)F
4. N#Cc1cncn1CC(=O)c1ccc(Oc2ccc(Br)cc2)cc1F
5. O=C(Cn1cncc1Cl)c1cnc(Oc2ccc(Cl)cc2)cc1C(F)(F)F
6. N#Cc1cncn1CC(=O)c1ccc(Oc2ccc(Cl)cc2)cc1F

["90 to 100%", "90 to 100%", "80 to 89%", "90 to 100%", "90 to 100%", "90 to 100%"]

----------
test: Log P by HPLC on reversed phase columns (EEC directive 79/831 Annex V.A8; methods [a], [b], [c]); type: physicochemical
Measured Property: LogP

- Compound: "N#Cc1cncn1CC(O)(c1ccc(F)c(F)c1Cl)C1(F)CC1 (centres unmarked) [I-636]"
  Observed: "2.25^[a]"
- Compound: "N#Cc1cncn1CC(O)(c1ccc(F)cc1F)C1CCCCC1 (centres unmarked) [I-481]"
  Observed: "3.05^[a]"
- Compound: "N#Cc1cncn1CC(O)(CC1CC1)c1cc(F)cc(Br)c1 (centres unmarked) [I-532]"
  Observed: "2.65^[a]"
- Compound: "N#Cc1cncn1CC(O)(CC1CC1)c1ccc(Cl)cc1F (centres unmarked) [I-442]"
  Observed: "2.75^[a]"
- Compound: "CC(O)(Cn1cncc1Br)c1ccc(Oc2ccc(Cl)cc2)cc1Cl (centres unmarked) [I-198]"
  Observed: "2.75^[a]"

Each of the following entries comes with a recorded value; kindly state LogP for each.
1. CCCC(O)(Cn1cncc1C#N)c1ccc(F)cc1Cl (centres unmarked) [I-402]
2. CC(O)(Cn1cncc1C#N)c1ccc(Oc2ccc(I)cc2)cc1Br (centres unmarked) [I-217]
3. COC(Cn1cncc1C#N)c1ccc(Oc2ccc(Br)cc2)cc1C(F)(F)F (centres unmarked) [I-88]
4. CCCC#Cc1ccc(C(O)(Cn2cncc2C#N)C2(F)CC2)c(F)c1 (centres unmarked) [I-645]
5. N#Cc1cncn1CC(O)c1ccc(Oc2ccc(Cl)nc2)cc1Cl (centres unmarked) [I-43]

2.73^[a]
3.81^[a]
4.25^[a]
3.29^[a]
2.37^[a]

Quick batch: LogP for everything below.
1. N#Cc1cncn1CC(O)(c1cc(Br)ccc1F)C1(Cl)CC1 (centres unmarked) [I-632]
2. CC(=O)c1cncn1CC(C)(O)c1ccc(Oc2ccc(Br)cc2)cc1F (centres unmarked) [I-190]

1: 2.49^[a]; 2: 2.75^[a]

Hello, I would appreciate it if you could give LogP for each entry below.
1. N#Cc1cncn1CC(O)(c1cc(Cl)ccc1F)C1(F)CC1 (centres unmarked) [I-522]
2. OC(Cn1cncc1Br)c1ccc(Oc2ccc(Cl)nc2)nc1Cl (centres unmarked) [I-17]
3. N#Cc1cncn1CC(O)c1cnc(Oc2ccc(C(F)(F)F)cc2)cc1C(F)(F)F (centres unmarked) [I-111]

2.25^[a]
1.69^a
3.15^[a]

// batch mode: one LogP value per listed entry
1. CCCC#Cc1ccc(C(O)(Cn2cncc2C#N)C2(Cl)CC2)c(F)c1 (centres unmarked) [I-652]
2. N#Cc1cncn1CC(O)(c1ccccc1C(F)(F)F)C1(F)CC1 (centres unmarked) [I-348]
3. N#Cc1cncn1CC(O)(c1ccc(Oc2ccccc2)cc1)C1(Cl)CC1 (centres unmarked) [I-281]
4. CC(O)(Cn1cncc1C(F)(F)F)c1ccc(Oc2ccc(Cl)cc2)cc1Cl (centres unmarked) [I-183]
5. CC(C)(C)CC(O)(Cn1cncc1C#N)c1ccc(F)cc1Cl (centres unmarked) [I-259]
6. N#Cc1cncn1CC(O)(c1cc(Cl)c(Cl)cc1Cl)C1(F)CC1 (centres unmarked) [I-576]
7. Cc1ccc(C(O)(Cn2cncc2C#N)C2(Cl)CC2)c(Cl)c1 (centres unmarked) [I-331]

["3.48^[a]", "2.28^[a]", "3.19^[a]", "4.25^[a]", "3.39^[a]", "2.82^[a]", "2.58^[a]"]
